target: Luciferin 4-monooxygenase (Photinus pyralis); test: qHTS of Nrf2 Activators: Hit Validation in Secondary FLuc Assay; conditions: firefly luciferase inhibition counter-screen, luminescence; series mostly up to 57.5 µM; also: nearly all actives have a fitted effect of over 65% in size
The campaign covered roughly 1,100 compounds. About 390 (35%) were called active. Not shown: some 30% with an inconclusive outcome. Calls follow the shape of the dose curve; as a rule, active = well fitted inhibition curve with a large enough effect; inconclusive = small, poorly fitted or top-dose-only effect; inactive = flat fitted curve, though single readings scatter. The list shows a part of the results.
// one of True = active, False = inactive, no free text

Outcome logged for "O=C1c2ccccc2-c2cc3ccccc3cc21" in this assay: True

Outcome logged for "Cc1cccc(C(=O)Nc2nnc(SCC(=O)NCc3ccco3)s2)c1" in this assay: True

Outcome logged for "O=C(Nc1ccc(Cl)c(Cl)c1)c1ccco1" in this assay: True

Outcome logged for "Cn1c(O)c(N=Nc2ccc(S(=O)(=O)N3CCOCC3)cc2)c(=O)n(C)c1=O" in this assay: False
